Test: inhibitors of hydroxyurea-induced Chk1 phosphorylation, primary screen, imaging, HeLa, phospho-Chk1 antibody, percent positive cells (AID 1186)
Details: hydroxyurea-induced phospho-Chk1 immunofluorescence imaging, higher = more signal
quantityMeasured: z-score
When you answer, write just the number.

Input CCOC(=O)C1=CCC(c2ccccc2)N(S(=O)(=O)CC[Si](C)(C)C)C1 (stereo not given) . Output z-score: -0.262

Input "C[C@@H]1ON(c2cccc(C(=O)OC(C)(C)C)c2)[C@H](c2ccc(Br)cc2)[C@H]1C(=O)N1C(=O)OC[C@H]1Cc1ccccc1" . Output z-score: 0.0511

Input "C=CCOC(=O)[C@@H]1[C@H]2C(=O)O[C@H](c3ccccc3)[C@H](c3ccccc3)N2[C@H](c2ccc(OCCOC(=O)[C@@H]3C[C@@H]4C(=O)N[C@@H](Cc5ccccc5)C(=O)N4[C@@H]3c3ccc(O)cc3)cc2)[C@@]12C(=O)Nc1ccc(I)cc12" . Output z-score: 0.193

Input "COC(=O)[C@@]1(Cc2ccccc2)[C@H]2c3cc(C(=O)N4CCCC4)n(Cc4nc5ccccc5[nH]4)c3C[C@H]2CN1C(=O)c1ccccc1" . Output z-score: -1.01

Input "C=CCOC(=O)[C@@H]1[C@H]2C(=O)O[C@H](c3ccccc3)[C@H](c3ccccc3)N2[C@H](c2ccc(OCCOC(=O)[C@@H]3C[C@@H]4C(=O)N[C@@H](CCCC[N+](C)(C)C)C(=O)N4[C@@H]3c3cccc(OCCO)c3)cc2)[C@@]12C(=O)Nc1ccc(I)cc12" . Output z-score: -0.558

----------
Assay: E. coli acrAB mutant growth effects, primary screen, E. coli filamentation inducers, strain DRC39, OD650, 48 h (AID 1179);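 note: screen aims at cell division blockers that make cells filament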
Conditions: E. coli DRC39 delta-acrAB growth, higher = more signal, called active from +8 up or from −8 down
Could you please report measured z-score for the items listed next?
When you answer, write just the number.

Input CCCCN1CC=CC23O[C@@H]4C=CCOC(=O)[C@@H]4[C@H]2C(=O)N(CCCCCO)[C@@H]3C1=O (stereo partly specified) . Output z-score: -0.982

Input "NC(=O)[C@@H]1[C@H]2C(=O)O[C@H](c3ccccc3)[C@H](c3ccccc3)N2[C@H](c2ccc(O)cc2)[C@@]12C(=O)Nc1ccc(C#CC3(O)CCCCCC3)cc12" . Output z-score: -0.184

Input "C=CCOC(=O)[C@H]1[C@@H]2C(=O)O[C@@H](c3ccccc3)[C@@H](c3ccccc3)N2[C@@H](c2ccc(OCCOC(=O)[C@@H]3C[C@@H]4C(=O)N[C@@H](CCCCN(C)C)C(=O)N4[C@@H]3c3ccc(O)cc3)cc2)[C@]12C(=O)Nc1ccc(I)cc12" . Output z-score: 0.767

Input "COc1ccc(CCNC(=O)[C@@]2(C)c3ccccc3C(=O)N(Cc3cc(F)cc(C(F)(F)F)c3)[C@H]2c2ccc(CO)cc2)cc1" . Output z-score: 0.453

Input "O=C1NCC(=O)N2[C@@H]1C[C@@H](C(=O)O)[C@H]2c1cccc(OCCO)c1" . Output z-score: 0.524

Input "COCCOC(=O)N1C(=O)[C@@]2(c3cc(C#CC4=CCCCC4)ccc31)[C@H](C(N)=O)[C@H]1C(=O)O[C@H](c3ccccc3)[C@H](c3ccccc3)N1[C@@H]2c1ccc(OCCO)cc1" . Output z-score: 0.505
